Hi! I'm sharing some ΔTm results obtained with Mitogen-activated protein kinase kinase kinase 5 (Homo sapiens) (UniProt Q99683).
Sequence (Q99683 whole entry): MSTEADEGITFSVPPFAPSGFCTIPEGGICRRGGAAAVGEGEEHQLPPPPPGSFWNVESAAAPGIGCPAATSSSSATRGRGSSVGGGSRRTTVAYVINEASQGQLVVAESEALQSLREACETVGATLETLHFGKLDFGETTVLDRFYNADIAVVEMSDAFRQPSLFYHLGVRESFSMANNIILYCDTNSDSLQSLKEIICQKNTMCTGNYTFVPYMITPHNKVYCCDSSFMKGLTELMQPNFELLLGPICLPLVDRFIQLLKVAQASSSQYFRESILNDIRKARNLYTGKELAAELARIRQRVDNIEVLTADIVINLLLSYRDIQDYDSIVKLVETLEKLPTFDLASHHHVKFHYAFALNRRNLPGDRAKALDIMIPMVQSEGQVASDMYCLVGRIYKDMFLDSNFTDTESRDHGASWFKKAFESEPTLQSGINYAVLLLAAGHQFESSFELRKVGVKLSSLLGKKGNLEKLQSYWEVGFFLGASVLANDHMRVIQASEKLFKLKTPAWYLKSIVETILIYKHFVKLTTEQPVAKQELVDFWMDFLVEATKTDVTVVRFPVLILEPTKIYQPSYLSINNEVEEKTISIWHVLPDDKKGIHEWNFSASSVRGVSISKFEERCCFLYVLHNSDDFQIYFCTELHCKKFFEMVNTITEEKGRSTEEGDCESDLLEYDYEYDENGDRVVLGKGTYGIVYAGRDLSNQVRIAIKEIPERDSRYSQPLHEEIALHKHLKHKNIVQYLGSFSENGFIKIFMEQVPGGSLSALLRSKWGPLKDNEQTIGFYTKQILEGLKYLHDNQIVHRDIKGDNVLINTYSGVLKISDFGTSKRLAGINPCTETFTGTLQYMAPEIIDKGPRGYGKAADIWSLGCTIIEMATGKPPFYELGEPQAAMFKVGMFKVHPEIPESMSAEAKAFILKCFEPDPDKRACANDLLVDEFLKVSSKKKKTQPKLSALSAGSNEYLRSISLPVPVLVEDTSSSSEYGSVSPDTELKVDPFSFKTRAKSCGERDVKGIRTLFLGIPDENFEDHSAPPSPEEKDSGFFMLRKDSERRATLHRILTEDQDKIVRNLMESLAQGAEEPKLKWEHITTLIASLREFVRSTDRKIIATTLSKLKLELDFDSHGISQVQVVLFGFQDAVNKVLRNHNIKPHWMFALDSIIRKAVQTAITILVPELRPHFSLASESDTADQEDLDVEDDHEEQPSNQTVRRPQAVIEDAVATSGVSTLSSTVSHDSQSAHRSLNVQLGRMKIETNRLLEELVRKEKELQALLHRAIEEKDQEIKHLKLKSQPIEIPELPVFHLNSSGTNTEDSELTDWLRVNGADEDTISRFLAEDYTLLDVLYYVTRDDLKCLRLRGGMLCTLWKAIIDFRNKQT

- compound: "CC(C)N(CCO)c1nc(Nc2cccc(Cl)c2)c2ncn(C(C)C)c2n1"
  units.symbol: "°C"
  ΔTm: 0.4
- compound: "C[S+]([O-])c1ccc(CSc2nc(-c3ccc(F)cc3)c(-c3ccncc3)[nH]2)cc1 (stereo unspecified)"
  units.symbol: "°C"
  ΔTm: 0.9
- compound: "CC(C)(C)c1nc2c3ccc(F)cc3c3c(=O)[nH]ccc3c2[nH]1"
  units.symbol: "°C"
  ΔTm: 4.9
- compound: "CC(C)n1cnc2/c(=N/c3cccc(Cl)c3)nc(NCCO)[nH]c21"
  units.symbol: "°C"
  ΔTm: 0.4
- compound: "COc1cc(OC)c(/C=C2\\C(=O)Nc3ccccc32)c(OC)c1"
  units.symbol: "°C"
  ΔTm: 0
- compound: "CCOc1cc2ncnc(Nc3cccc(Br)c3)c2cc1OCC"
  units.symbol: "°C"
  ΔTm: 0.6
- compound: "N=C(N)NCCNS(=O)(=O)c1cccc2cnccc12"
  units.symbol: "°C"
  ΔTm: 0.1
- compound: "NC1=N/C(=C2/CCNC(=O)c3[nH]ccc32)C(=O)N1"
  units.symbol: "°C"
  ΔTm: 4.6
- compound: "COc1ccc(S(=O)(=O)N(CCO)c2ccccc2CN(C)C/C=C/c2ccc(Cl)cc2)cc1"
  units.symbol: "°C"
  ΔTm: -0.1
- compound: "CC(C)n1cnc2c(NCc3ccccc3)nc(NCCCO)nc21"
  units.symbol: "°C"
  ΔTm: 0.2
- compound: "O=Nc1c(-c2c(O)[nH]c3ccccc23)[nH]c2ccccc12"
  units.symbol: "°C"
  ΔTm: 5.7
- compound: "O=C1C(Cl)=C(N2C(=O)CCC2=O)C(=O)c2ccccc21"
  units.symbol: "°C"
  ΔTm: -1.1
- compound: "COc1ccc2c(c1)/C(=C/c1cnc[nH]1)C(=O)N2"
  units.symbol: "°C"
  ΔTm: 5.4
- compound: "O=C(O)c1cc(NCc2cc(O)ccc2O)ccc1O"
  units.symbol: "°C"
  ΔTm: -0.1
- compound: "O=C1C=C2C(=Nc3c2c2c(c4c3=NC3=C4CCC=C3)C=NC=2)CC1"
  units.symbol: "°C"
  ΔTm: 5.7
- compound: "O=c1ccc2ccc(O)c(O)c2o1"
  units.symbol: "°C"
  ΔTm: -0.6
- compound: "COC(=O)[C@]1(O)C[C@@H]2O[C@@]1(C)n1c3ccccc3c3c4c(c5c6ccccc6n2c5c31)C(=O)NC4 (single isomer, unassigned)"
  units.symbol: "°C"
  ΔTm: 12.7
- compound: "N#CCCc1ccc2c(c1)-c1[nH]c3ccc([N+](=O)[O-])cc3c1CC(=O)N2"
  units.symbol: "°C"
  ΔTm: 1.8
- compound: "Cc1nc(N)sc1-c1ccnc(Nc2cccc([N+](=O)[O-])c2)n1"
  units.symbol: "°C"
  ΔTm: 1.2
- compound: "C[S+]([O-])c1ccc(-c2nc(-c3ccc(F)cc3)c(-c3ccncc3)[nH]2)cc1 (stereo unspecified)"
  units.symbol: "°C"
  ΔTm: 0.3
- compound: "Cc1ccc(NC2=CC(=O)c3sc(C)nc3C2=O)cc1"
  units.symbol: "°C"
  ΔTm: -0.2

----------
Property: IC50; scope: individual compounds
Target: Tyrosine-protein kinase ZAP-70 (Homo sapiens)
Sequence (P43403 whole entry): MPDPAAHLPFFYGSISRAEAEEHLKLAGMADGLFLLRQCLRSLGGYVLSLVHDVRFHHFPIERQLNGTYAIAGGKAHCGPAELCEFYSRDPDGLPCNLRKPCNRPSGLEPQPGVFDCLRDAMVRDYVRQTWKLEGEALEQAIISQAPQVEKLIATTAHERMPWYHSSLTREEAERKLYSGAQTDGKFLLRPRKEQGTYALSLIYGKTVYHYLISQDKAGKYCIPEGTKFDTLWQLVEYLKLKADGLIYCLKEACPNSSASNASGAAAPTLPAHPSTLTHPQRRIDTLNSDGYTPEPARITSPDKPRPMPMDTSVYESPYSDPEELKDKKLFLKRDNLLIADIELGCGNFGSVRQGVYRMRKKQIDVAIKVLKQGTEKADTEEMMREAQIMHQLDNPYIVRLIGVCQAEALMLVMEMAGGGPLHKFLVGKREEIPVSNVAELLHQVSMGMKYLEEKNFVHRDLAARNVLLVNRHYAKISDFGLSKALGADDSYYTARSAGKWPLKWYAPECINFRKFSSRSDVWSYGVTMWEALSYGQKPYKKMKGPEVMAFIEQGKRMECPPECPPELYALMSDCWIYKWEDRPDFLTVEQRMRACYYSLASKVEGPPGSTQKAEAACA

- line.notation: "NCCNc1ncc(C(N)=O)c(Nc2cccc(C(F)(F)F)c2)n1"
  units.symbol: "µM"
  prefix.operator: "="
  IC50: 11.2
- line.notation: "CC(C)(C)n1nc(-c2ccc(Cl)cc2)c2c(N)ncnc21"
  units.symbol: "µM"
  prefix.operator: ">"
  IC50: 100
